As shown below, each of these compounds has a reported viability, T/C value.
system: OVCAR-5 complex spheroid (HUVEC/MSC), viability % T/C; test: Anticancer human tumor OVCAR-5 cell line growth inhibition [Asc]; conditions: second compound 0.3 µM; first compound 3.16 µM; stronger effect = lower value;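 note: spheroids exposed to agents for 7 days before readout; 100% = DMSO vehicle-treated wells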
Give the number; % is assumed, so skip it.

Here's what some known entries look like.
O=C(c1cc(Cc2n[nH]c(=O)c3ccccc23)ccc1F)N1CCN(C(=O)C2CC2)CC1 + CCN1C(C(=O)NC23CCC(C(=O)O)(CC2)CC3)C(c2cccc(Cl)c2F)C2(C(=O)Nc3cc(Cl)ccc32)C12CCCCC2	86.3
C=CC(=O)N1CCN(c2nc(=O)n(-c3c(C)ccnc3C(C)C)c3nc(-c4c(O)cccc4F)c(F)cc23)C(C)C1 (centres undefined) + CCN1C(C(=O)NC23CCC(C(=O)O)(CC2)CC3)C(c2cccc(Cl)c2F)C2(C(=O)Nc3cc(Cl)ccc32)C12CCCCC2	118
C#Cc1c(F)ccc2cc(O)cc(-c3ncc4c(N5CC6CCC(C5)N6)nc(OCC56CCCN5CC(F)C6)nc4c3F)c12 (centres undefined) + CCN1C(C(=O)NC23CCC(C(=O)O)(CC2)CC3)C(c2cccc(Cl)c2F)C2(C(=O)Nc3cc(Cl)ccc32)C12CCCCC2	66.2

Consider the record given below.
Task: Name the recorded viability, T/C of the compound listed here: C=C(F)C(=O)N1CCN(c2nc(OCC3CCCN3C)nc3c2CCN(c2cccc4cccc(Cl)c24)C3)CC1CC#N (centres undefined) + CCN1C(C(=O)NC23CCC(C(=O)O)(CC2)CC3)C(c2cccc(Cl)c2F)C2(C(=O)Nc3cc(Cl)ccc32)C12CCCCC2
Output: 7.84
